Origin of values: patent US20250368666A1

Parameter: Kd. Scope: all listed entries.
# experimental-target: FGFR2 (Homo sapiens)
# Construct: made in house; host or cells: E. coli (BL21-derived), T7 phage
# run-description: Kinase binding assay (kinase-tagged T7 phage, affinity beads, qPCR), Kd
# test-context: read-out: FGFR2 (Kd nM)

Here's what some known entries look like.
>  <compound-smiles>
C[C@@H](Oc1cc2c(-c3ccc(N4CC(C)(CN5CCOCC5)C4)nc3)n[nH]c2cc1F)c1c(Cl)cncc1Cl

>  <Kd>
1 to 50 nM

$$$$
>  <compound-smiles>
COc1cc2[nH]nc(-c3cnc(N4CC(C)(N5CCOCC5)C4)c(C#N)c3)c2cc1O[C@H](C)c1c(Cl)cncc1Cl

>  <Kd>
1 to 50 nM

$$$$

Incoming: Write down the reported Kd of C[C@@H](Oc1cc2c(-c3cnc(N4CC(C)(CP(C)(C)=O)C4)c(C#N)c3)n[nH]c2cc1F)c1c(Cl)cncc1Cl , test system: FGFR2 (Homo sapiens).
Outgoing: 1 to 50 nM

Incoming: Write down the reported Kd of CCNC1(C)CN(c2ncc(-c3n[nH]c4ccc(O[C@H](C)c5c(Cl)cncc5Cl)cc34)cc2F)C1 , test system: FGFR2 (Homo sapiens).
Outgoing: 1 to 50 nM

Incoming: Write down the reported Kd of COc1cc2[nH]nc(-c3cnc(N4CC(C)(N5CCCC5)C4)c(C#N)c3)c2cc1O[C@H](C)c1c(Cl)cncc1Cl , test system: FGFR2 (Homo sapiens).
Outgoing: 1 to 50 nM

Incoming: Write down the reported Kd of CCC1(NC)CN(c2ncc(-c3n[nH]c4cc(OC)c(O[C@H](C)c5c(Cl)cncc5Cl)cc34)cc2C#N)C1 , test system: FGFR2 (Homo sapiens).
Outgoing: 1 to 50 nM

Incoming: Write down the reported Kd of C[C@@H](Oc1ccc2[nH]nc(-c3cnc(N4CC(C)(NCC(C)(C)O)C4)c(F)c3)c2c1F)c1c(Cl)cncc1Cl , test system: FGFR2 (Homo sapiens).
Outgoing: > 1000 nM

----------
# experimental-target: FGFR1 (Homo sapiens, UniProt P11362)
# Construct: made in house; host or cells: E. coli (BL21-derived), T7 phage
# Sequence (P11362 22-822): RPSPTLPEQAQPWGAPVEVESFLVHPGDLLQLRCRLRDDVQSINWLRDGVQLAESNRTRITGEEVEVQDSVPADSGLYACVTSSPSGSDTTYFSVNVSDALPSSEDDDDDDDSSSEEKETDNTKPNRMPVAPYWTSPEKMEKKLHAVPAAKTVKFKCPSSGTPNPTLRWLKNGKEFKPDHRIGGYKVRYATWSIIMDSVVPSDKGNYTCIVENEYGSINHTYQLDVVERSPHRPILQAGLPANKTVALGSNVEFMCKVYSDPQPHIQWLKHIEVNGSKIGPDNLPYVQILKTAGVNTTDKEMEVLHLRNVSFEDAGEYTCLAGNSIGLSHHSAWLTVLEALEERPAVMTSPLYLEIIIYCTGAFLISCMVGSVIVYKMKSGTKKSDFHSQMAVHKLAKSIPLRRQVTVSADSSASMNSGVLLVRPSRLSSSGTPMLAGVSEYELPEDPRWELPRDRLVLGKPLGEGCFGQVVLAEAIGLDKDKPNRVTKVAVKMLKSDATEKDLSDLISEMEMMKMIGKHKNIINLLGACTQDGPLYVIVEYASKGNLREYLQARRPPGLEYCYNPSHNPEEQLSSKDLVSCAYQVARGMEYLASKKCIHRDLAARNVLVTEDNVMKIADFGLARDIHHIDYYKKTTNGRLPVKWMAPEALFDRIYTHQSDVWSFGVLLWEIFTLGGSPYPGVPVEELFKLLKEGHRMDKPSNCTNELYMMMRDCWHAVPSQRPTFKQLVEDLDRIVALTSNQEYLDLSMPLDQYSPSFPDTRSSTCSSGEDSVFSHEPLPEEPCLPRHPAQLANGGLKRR
# run-description: Kinase binding assay (kinase-tagged T7 phage, affinity beads, qPCR), Kd
# test-context: read-out: FGFR1 (Kd nM)
measure: Kd

Here's what some known entries look like.
>  <compound-smiles>
C[C@@H](Oc1ccc2[nH]nc(-c3cnc(N4CC(C)(NCC5(O)CC5)C4)c(F)c3)c2c1)c1c(Cl)cncc1Cl

>  <Kd>
1 to 50 nM

$$$$
>  <compound-smiles>
CC(C)NCC1(C)CN(c2ncc(-c3n[nH]c4ccc(O[C@H](C)c5c(Cl)cncc5Cl)cc34)cc2F)C1

>  <Kd>
1 to 50 nM

$$$$
>  <compound-smiles>
C[C@@H](Oc1ccc2[nH]nc(-c3ccc(N4CC(C)(NC(=O)CN(C)C)C4)nc3)c2c1)c1c(Cl)cncc1Cl

>  <Kd>
1 to 50 nM

$$$$

Incoming: Entry under review: COc1cc2[nH]nc(-c3cnc(N4CC(C)(CNC(C)C)C4)nc3)c2cc1O[C@H](C)c1c(Cl)cncc1Cl . Reported Kd?
Outgoing: 1 to 50 nM

Incoming: Entry under review: C[C@@H](Oc1ccc2[nH]nc(-c3cnc(N4CC(C)(NCC(C)(C)O)C4)c(C#N)c3)c2c1)c1c(Cl)cncc1Cl . Reported Kd?
Outgoing: 1 to 50 nM

Incoming: Entry under review: COc1cc2[nH]nc(-c3cnc(N4CC(C)(NCCO)C4)c(F)c3)c2cc1O[C@H](C)c1c(Cl)cncc1Cl . Reported Kd?
Outgoing: 1 to 50 nM

----------
# experimental-target: FGFR2 (Homo sapiens, UniProt P21802)
# Construct: made in house; host or cells: E. coli (BL21-derived), T7 phage
# Sequence (P21802 22-821): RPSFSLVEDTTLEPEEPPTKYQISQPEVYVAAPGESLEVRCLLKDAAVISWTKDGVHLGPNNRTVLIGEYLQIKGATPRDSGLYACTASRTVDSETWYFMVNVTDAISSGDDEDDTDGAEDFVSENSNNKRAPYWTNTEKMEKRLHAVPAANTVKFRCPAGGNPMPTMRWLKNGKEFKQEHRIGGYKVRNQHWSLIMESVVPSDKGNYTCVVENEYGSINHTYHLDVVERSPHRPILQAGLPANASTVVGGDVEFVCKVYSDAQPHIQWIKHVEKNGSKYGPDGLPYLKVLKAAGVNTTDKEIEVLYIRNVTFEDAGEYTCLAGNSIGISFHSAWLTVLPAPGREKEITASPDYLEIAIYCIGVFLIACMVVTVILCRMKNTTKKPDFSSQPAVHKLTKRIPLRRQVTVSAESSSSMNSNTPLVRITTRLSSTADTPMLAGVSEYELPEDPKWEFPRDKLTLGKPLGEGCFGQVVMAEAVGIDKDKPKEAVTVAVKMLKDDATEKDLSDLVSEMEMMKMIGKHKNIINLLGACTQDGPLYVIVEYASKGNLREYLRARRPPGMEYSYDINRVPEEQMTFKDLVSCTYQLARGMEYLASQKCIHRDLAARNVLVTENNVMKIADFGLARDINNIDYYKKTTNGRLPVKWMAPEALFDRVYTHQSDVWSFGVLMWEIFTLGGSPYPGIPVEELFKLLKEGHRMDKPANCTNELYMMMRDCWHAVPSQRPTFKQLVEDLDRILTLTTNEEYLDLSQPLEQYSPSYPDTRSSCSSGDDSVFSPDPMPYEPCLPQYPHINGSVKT
# run-description: Kinase binding assay (kinase-tagged T7 phage, affinity beads, qPCR), Kd
# test-context: read-out: FGFR2 (Kd nM)
measure: Kd

Here's what some known entries look like.
>  <molecule>
COc1cc2[nH]nc(-c3cnc(N4CC(C)(NCC5CC5)C4)c(F)c3)c2cc1O[C@H](C)c1c(Cl)cncc1Cl [Example 126]

>  <measure>
Kd

>  <measured-result>
1 to 50 nM

$$$$
>  <molecule>
C[C@@H](Oc1ccc2[nH]nc(-c3ccc(N4CC(C)(N5C[C@H]6C[C@@H]5CO6)C4)nc3)c2c1)c1c(Cl)cncc1Cl [Example 231]

>  <measure>
Kd

>  <measured-result>
1 to 50 nM

$$$$
>  <molecule>
C[C@H](Oc1ccc2[nH]nc(-c3cnc(N4C[C@@H](CS(C)(=O)=O)[C@@H]4C)c(F)c3)c2c1)c1c(Cl)cncc1Cl [Example 202]

>  <measure>
Kd

>  <measured-result>
> 1000 nM

$$$$
>  <molecule>
CC(C)NC1(C)CN(c2ccc(-c3n[nH]c4ccc(O[C@H](C)c5c(Cl)cncc5Cl)c(F)c34)cn2)C1 [Example 173]

>  <measure>
Kd

>  <measured-result>
300 to 1000 nM

$$$$
>  <molecule>
C[C@@H](Oc1ccc2[nH]nc(-c3cnc(N4CC(C)(N5CCCC5)C4)c(F)c3)c2c1F)c1c(Cl)cncc1Cl [Example 168]

>  <measure>
Kd

>  <measured-result>
50 to 300 nM

$$$$
>  <molecule>
C[C@@H](Oc1ccc2[nH]nc(-c3cnc(N4CC(C)(NCCO)C4)c(C#N)c3)c2c1F)c1c(Cl)cncc1Cl [Example 324]

>  <measure>
Kd

>  <measured-result>
> 1000 nM

$$$$

# next molecule below
Incoming: Write down the reported Kd of COc1cc2[nH]nc(-c3cnc(N4CC(C)(CN(C)C)C4)c(C#N)c3)c2cc1O[C@H](C)c1c(Cl)cncc1Cl [Example 49] , test system: FGFR2 (Homo sapiens, UniProt P21802).
Outgoing: 1 to 50 nM

----------
# Test system: KG-1 cell line (FGFR 1-fusion)
# run-description: Cancer cell line cell viability assay (Cell Titer-Glo), 72 hr
# Format: cell-based
# test-context: Homo sapiens, KG-1, KG-1 cell line (FGFR1-fusion)
Parameter: IC50. Scope: all listed entries.

Here's what some known entries look like.
>  <compound-smiles>
CNC1(C)CN(c2ncc(-c3n[nH]c4ccc(O[C@H](C)c5c(Cl)cncc5Cl)cc34)cc2F)C1

>  <experimental-target>
KG-1 cell line (FGFR 1-fusion)

>  <IC50>
0.1 to 50 nM

$$$$
>  <compound-smiles>
C[C@@H](Oc1ccc2[nH]nc(-c3cnc(N4CC(C)(NCC(F)F)C4)c(F)c3)c2c1)c1c(Cl)cncc1Cl

>  <experimental-target>
KG-1 cell line (FGFR 1-fusion)

>  <IC50>
50 to 200 nM

$$$$
>  <compound-smiles>
C[C@@H](Oc1ccc2[nH]nc(-c3cnc(N4CC(C)(N[C@@H]5CCOC5)C4)c(C#N)c3)c2c1)c1c(Cl)cncc1Cl

>  <experimental-target>
KG-1 cell line (FGFR 1-fusion)

>  <IC50>
200 to 1000 nM

$$$$
>  <compound-smiles>
CCCNC1(C)CN(c2ncc(-c3n[nH]c4ccc(O[C@H](C)c5c(Cl)cncc5Cl)cc34)cc2F)C1

>  <experimental-target>
KG-1 cell line (FGFR 1-fusion)

>  <IC50>
50 to 200 nM

$$$$

Incoming: Write down the reported IC50 of COc1cc2[nH]nc(-c3cnc(N4CC(C)(NCC5(O)CC5)C4)c(F)c3)c2cc1O[C@H](C)c1c(Cl)cncc1Cl , test system: KG-1 cell line (FGFR 1-fusion).
Outgoing: 0.1 to 50 nM

Incoming: Write down the reported IC50 of COCCNC1(C)CN(c2ncc(-c3n[nH]c4ccc(O[C@H](C)c5c(Cl)cncc5Cl)cc34)cc2C#N)C1 , test system: KG-1 cell line (FGFR 1-fusion).
Outgoing: 200 to 1000 nM

Incoming: Write down the reported IC50 of COc1cc2[nH]nc(-c3cnc(N4CC(C)(N5CCCC5)C4)c(C#N)c3)c2cc1O[C@H](C)c1c(Cl)cncc1Cl , test system: KG-1 cell line (FGFR 1-fusion).
Outgoing: 50 to 200 nM

----------
Parameter: Kd. Scope: all listed entries.
# experimental-target: FGFR3 (V555M) (Homo sapiens, UniProt P22607, V555M)
# Construct: made in house; host or cells: E. coli (BL21-derived), T7 phage
# Sequence (P22607 23-806 V555M): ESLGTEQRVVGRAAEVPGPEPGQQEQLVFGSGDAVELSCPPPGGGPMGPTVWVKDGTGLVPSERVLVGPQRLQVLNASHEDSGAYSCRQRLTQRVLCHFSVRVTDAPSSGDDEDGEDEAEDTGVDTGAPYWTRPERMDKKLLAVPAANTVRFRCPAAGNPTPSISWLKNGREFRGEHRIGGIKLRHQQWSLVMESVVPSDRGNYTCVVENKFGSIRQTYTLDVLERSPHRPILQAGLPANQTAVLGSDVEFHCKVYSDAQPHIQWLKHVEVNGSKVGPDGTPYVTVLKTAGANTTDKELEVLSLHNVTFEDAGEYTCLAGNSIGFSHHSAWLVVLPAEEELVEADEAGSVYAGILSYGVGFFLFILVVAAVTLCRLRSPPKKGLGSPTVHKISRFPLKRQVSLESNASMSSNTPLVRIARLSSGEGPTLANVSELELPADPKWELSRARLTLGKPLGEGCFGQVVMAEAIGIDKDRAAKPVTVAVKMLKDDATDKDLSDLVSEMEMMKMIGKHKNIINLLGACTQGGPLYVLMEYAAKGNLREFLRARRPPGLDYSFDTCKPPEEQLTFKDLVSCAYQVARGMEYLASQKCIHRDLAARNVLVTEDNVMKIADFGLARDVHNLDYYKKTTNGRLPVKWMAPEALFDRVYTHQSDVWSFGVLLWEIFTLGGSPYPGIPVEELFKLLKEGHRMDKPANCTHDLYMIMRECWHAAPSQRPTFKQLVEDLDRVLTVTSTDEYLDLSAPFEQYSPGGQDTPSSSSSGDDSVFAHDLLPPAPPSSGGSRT
# run-description: Kinase binding assay (kinase-tagged T7 phage, affinity beads, qPCR), Kd
# test-context: V555M mutant; read-out: FGFR3 (V555M) (Kd nM)

>  <compound-smiles>
C[C@@H](Oc1cc2c(-c3cnc(N4CC(C)(NCC5CC5)C4)c(C#N)c3)n[nH]c2cc1F)c1c(Cl)cncc1Cl

>  <experimental-target>
FGFR3 (V555M) (Homo sapiens, UniProt P22607, V555M)

>  <Kd>
1 to 50 nM

$$$$
>  <compound-smiles>
C[C@@H](O)CNC1(C)CN(c2ncc(-c3n[nH]c4ccc(O[C@H](C)c5c(Cl)cncc5Cl)c(F)c34)cc2F)C1

>  <experimental-target>
FGFR3 (V555M) (Homo sapiens, UniProt P22607, V555M)

>  <Kd>
1 to 50 nM

$$$$
>  <compound-smiles>
C[C@@H](Oc1ccc2[nH]nc(-c3cnc(N4CC(C)(N5C[C@@H]6C[C@H]5CO6)C4)c(F)c3)c2c1)c1c(Cl)cncc1Cl

>  <experimental-target>
FGFR3 (V555M) (Homo sapiens, UniProt P22607, V555M)

>  <Kd>
1 to 50 nM

$$$$
>  <compound-smiles>
COc1cc2[nH]nc(-c3cnc(N4CC(C)(NCC(C)(C)O)C4)c(C#N)c3)c2cc1O[C@@H](C)c1c(Cl)cncc1Cl

>  <experimental-target>
FGFR3 (V555M) (Homo sapiens, UniProt P22607, V555M)

>  <Kd>
50 to 300 nM

$$$$
>  <compound-smiles>
C[C@H](O)CNC1(C)CN(c2ncc(-c3n[nH]c4ccc(O[C@H](C)c5c(Cl)cncc5Cl)c(F)c34)cc2F)C1

>  <experimental-target>
FGFR3 (V555M) (Homo sapiens, UniProt P22607, V555M)

>  <Kd>
50 to 300 nM

$$$$

# next compound below
Incoming: Entry under review: C[C@@H](Oc1ccc2[nH]nc(-c3cnc(N4CC(C)(N(C)C)C4)c(F)c3)c2c1)c1c(Cl)cncc1Cl . Reported Kd?
Outgoing: 1 to 50 nM
